Tested on: Saccharomyces cerevisiae
Test: protein stability index of tFT-peptide fusion in deletion strain of DAS1 (PSI (0-1 scale)); higher = more stable (slower turnover)
Parameter: protein stability index

Reference set (4 entries):
Construct sequence	protein stability index
VRWAVGGWRLVG	0.685
VRGAVGGMRLVG	0.677
PSLAAAFWRVVG	0.702
LEVYLSCVACIN	0.0737

The record that follows has no protein stability index shown yet.
Value wanted: protein stability index (Saccharomyces cerevisiae) of entry PDKRNFLIKLLN
0.61

###

Tested on: Saccharomyces cerevisiae
Experiment: protein stability index of tFT-peptide fusion (C-terminal peptide) (PSI (0-1 scale)); higher = more stable (slower turnover)
Details: genetic background: wild type; temperature: 30 C
Parameter: protein stability index
Would you mind answering with just the numeric figure?

Construct sequence	Test result
HPYTPLLSRLSP	0.708
SLPLPPPSPPHV	0.676
FSVSYFRLVRLC	0.0191
VGRAPDFLYGVW	0.691
HPLPPPLLPSPA	0.659
RVGSGCFVGIFC	0.577
ETRSDAVVVFTK	0.694
DSHRRPGSPPPL	0.688
LDAMNTSWYVKM	0.676
RGRRGAGTGRGP	0.657

I would be grateful if you could share the reported protein stability index for EGGRGYGRGRYG .
0.685

Then what about the sequence KKKKEIKKKKKT ?
0.697

###

System: Saccharomyces cerevisiae
Assay: protein stability index of tFT-peptide fusion in wild type (PSI (0-1 scale)); higher = more stable (slower turnover)
Conditions: genetic background: wild type
Note to self: values exactly at 0.2 are t. So protein stability index at or above 0.2 is t, below is f.

// known answers, use as guide
Construct sequence	Cat
CTSCTYKFRTNN	t
FSNRWTFRYWVN	f
GLYMCSVGCTFR	t

Pending sequence:
Item VSLAASFWRVVG with protein stability index of 0.2 or above?
f

###

Tested on: Saccharomyces cerevisiae
Assay: protein stability index of tFT-peptide fusion (C-terminal peptide) (PSI (0-1 scale)); higher = more stable (slower turnover)
Details: genetic background: wild type; temperature: 30 C
Overview of reported protein stability index across a group of sequences:

Reference set (3 entries):
Construct sequence	protein stability index
PHPPPSLLPSAP	0.761
FSPALPPSHSPP	0.676
PLRESSTRPSLL	0.684

I would be grateful if you could share the reported protein stability index for IIVGFFGLLLGL .
0.541

Then what about the sequence MSEFDVPLPIYM ?
0.716

Then what about the sequence FTLCPARALSLC ?
0.552

Then what about the sequence SPPLGFAPPSRS ?
0.853

Then what about the sequence LPPLPLRSLSSP ?
0.746

Then what about the sequence LTGAQPTDPNMR ?
0.697

Then what about the sequence SPPPPPPPPFPL ?
0.672

Then what about the sequence GGFALIWQRVCP ?
0.705

Then what about the sequence KGQKIIKNKNPK ?
0.644

Then what about the sequence PLWRVPPYPPSP ?
0.691

Then what about the sequence SFFVTVAGPFQI ?
0.686

###

Tested on: Saccharomyces cerevisiae
Assay: protein stability index of tFT-peptide fusion (C-terminal peptide) (PSI (0-1 scale)); higher = more stable (slower turnover)
Details: genetic background: wild type; temperature: 30 C
Parameter: protein stability index
Would you mind answering with just the numeric figure?

Reference set (4 entries):
Construct sequence	Parameter	Test result
INCDIIHRRKKG	protein stability index	0.646
TLGLLPDVCVEL	protein stability index	0.683
VRGWLAYLRWII	protein stability index	0.274
NKIKTSRKKNNQ	protein stability index	0.723

I would be grateful if you could share the reported protein stability index for SPRPLPLPLPTS .
0.682

Then what about the sequence LPHLDPPPLPPP ?
0.639

Then what about the sequence HPGPFSTTWHPT ?
0.743
